system: NCI-H226 lung; assay: NCI-60 one-dose screen, 48 h (100 = growth as untreated, 0 = no growth, -100 = all killed); conditions: 10 µM unless noted
This is part of a sample that, as a whole, favours compounds with a hit. Of some 83,000 tested, about 20% had one in any assay.
For each record, write down the corresponding growth.
Answers are plain numbers, in %.

Sample answers from the record:
Cc1cc2nc3c4cc([N+](=O)[O-])cc([N+](=O)[O-])c4n(CCN(C)C)c3nc2cc1C : 84.1
Fc1ccc2nc(-c3cc(-c4ccc5c(c4)OCO5)n[nH]3)[nH]c2c1 : 66.1
N#Cc1c(-c2ccc(O)cc2)c2c(N)nn(-c3ccccc3)c2[nH]c1=O : 94.5

I need growth for every entry listed below, if you could help.
1. NC1=NN(c2ccccc2)C(=O)/C1=C/c1ccc(Cl)cc1
2. Cn1cnc2c1c(=O)n(CCC(=O)Nc1ccc(F)cc1)c(=O)n2C
3. Cn1cc(-c2nc(-c3c[nH]c4ncccc34)cs2)c2cc(F)ccc21

Out:
99.2
106
62.3

Provenance of the data: PubChem BioAssay (NCI)
